system: E. Coli ATCC 25922; test: Minimum Inhibitory Concentration (MIC), modified microbroth dilution; assay type: cell-based; details: E. coli (25922); overnight incubation (18 hours)
endpoint: MIC50 E. coli (µg/mL)

Observe how each entry below is paired with its result.
compound	study.system	endpoint	output.unit	recorded.value
NCCc1cccc(-c2ccc3c(c2)C(=O)c2cc(-c4cccc(CCN)c4)ccc2CC3)c1 [Compound 153]	E. Coli ATCC 25922	MIC50 E. coli	µg/mL	6.25
NCCc1cccc(-c2ccc3c(c2)C(=O)c2cc(-c4cccc(CCN)c4)cc(-c4cccc(CCN)c4)c2CC3)c1 [Compound 154]	E. Coli ATCC 25922	MIC50 E. coli	µg/mL	1.56

a = NCCCOc1cc(OCCCN)cc(-c2cc(F)cc(-c3cc(F)cc(-c4cc(OCCCN)cc(OCCCN)c4)c3)c2)c1 [Compound 148]
b = c1cc(CN2CCNCC2)cc(-c2ccc3sc4ccc(-c5cccc(CN6CCNCC6)c5)cc4c3c2)c1 [Compound 175]
**Query** Parameter check: reported MIC50 E. coli is higher for which label, a or b ? Output the label that corresponds to your choice.
**Result** b
(b: 6.25 µg/mL, a: 1.56 µg/mL)

Reference source for all entries: patent US20140308317A1
